The entries below come with measured band intensity b1i0_62.5 values attached.
Test system: band b1i0_62.5
Assay: multi-sample expression analysis, band intensity
Assay type: in vivo
Conditions: Pooled, High dose, 1d
Give the figure only, with no unit attached.

CC(=O)[C@@]1(O)CC[C@H]2[C@@H]3C=C(Cl)C4=CC(=O)[C@@H]5C[C@@H]5[C@]4(C)[C@H]3CC[C@@]21C; 49.19
Nc1ccc(Cc2ccc(N)cc2)cc1; 59.42
S=C=Nc1cccc2ccccc12; 49.33

I am curious: what band intensity b1i0_62.5 value has been reported for Cc1cc(C(C)(C)C)c(O)c(C(C)(C)C)c1 ?
81.06

I am curious: what band intensity b1i0_62.5 value has been reported for O=NN(CCCl)C(=O)NCCCl ?
67.75

###

Tested on: band b1i0_69.4
Experiment: multi-sample expression analysis, band intensity
Type: in vivo
Conditions: Pooled, High dose, 7d
PROPERTY NAME: band intensity b1i0_69.4
Give the figure only, with no unit attached.

Solved entries (count: 3):
Cc1cc(C(C)(C)C)c(O)c(C(C)(C)C)c1; 255.9
Nc1ccc(Cc2ccc(N)cc2)cc1; 290.2061
CC(=O)[C@@]1(O)CC[C@H]2[C@@H]3C=C(Cl)C4=CC(=O)[C@@H]5C[C@@H]5[C@]4(C)[C@H]3CC[C@@]21C; 317.9

--- query ---
I am curious: what band intensity b1i0_69.4 value has been reported for S=C=Nc1cccc2ccccc12 ?
271.2

###

The entries below come with measured band intensity b1i0_53.0 values attached.
System: band b1i0_53.0
Assay: multi-sample expression analysis, band intensity
Assay type: in vivo
Conditions: Pooled, Low dose, 7d
Give the figure only, with no unit attached.

Cc1cc(C(C)(C)C)c(O)c(C(C)(C)C)c1; 104.5
Nc1ccc(Cc2ccc(N)cc2)cc1; 111.5
S=C=Nc1cccc2ccccc12; 108.1

I am curious: what band intensity b1i0_53.0 value has been reported for CC(=O)[C@@]1(O)CC[C@H]2[C@@H]3C=C(Cl)C4=CC(=O)[C@@H]5C[C@@H]5[C@]4(C)[C@H]3CC[C@@]21C ?
99.01

I am curious: what band intensity b1i0_53.0 value has been reported for O=NN(CCCl)C(=O)NCCCl ?
104.2

###

Tested on: band b1i0_57.4
Experiment: multi-sample expression analysis, band intensity
Format: in vivo
Conditions: Pooled, Low dose, 3d
Source text: To practice the invention, one skilled in the art obtains a source of biological samples, as well as expression information about the biological samples, i.e., expression information relative to one or more genes or polypeptides encoded therein. Data is collected for a particular phenotype appearing within a given population under study, whereby expression of that phenotype is to be determined within the biological sample under study. […]
PROPERTY NAME: band intensity b1i0_57.4
Give the figure only, with no unit attached.

Solved entries (count: 4):
Nc1ccc(Cc2ccc(N)cc2)cc1; 1433
S=C=Nc1cccc2ccccc12; 1266
CC(=O)[C@@]1(O)CC[C@H]2[C@@H]3C=C(Cl)C4=CC(=O)[C@@H]5C[C@@H]5[C@]4(C)[C@H]3CC[C@@]21C; 1338
Cc1cc(C(C)(C)C)c(O)c(C(C)(C)C)c1; 1224

--- query ---
I am curious: what band intensity b1i0_57.4 value has been reported for O=NN(CCCl)C(=O)NCCCl ?
1367
